Provenance of the data: ChEMBL document CHEMBL4184267

Biological target: Alpha-1B adrenergic receptor (Rattus norvegicus)
Sequence (P15823 whole entry): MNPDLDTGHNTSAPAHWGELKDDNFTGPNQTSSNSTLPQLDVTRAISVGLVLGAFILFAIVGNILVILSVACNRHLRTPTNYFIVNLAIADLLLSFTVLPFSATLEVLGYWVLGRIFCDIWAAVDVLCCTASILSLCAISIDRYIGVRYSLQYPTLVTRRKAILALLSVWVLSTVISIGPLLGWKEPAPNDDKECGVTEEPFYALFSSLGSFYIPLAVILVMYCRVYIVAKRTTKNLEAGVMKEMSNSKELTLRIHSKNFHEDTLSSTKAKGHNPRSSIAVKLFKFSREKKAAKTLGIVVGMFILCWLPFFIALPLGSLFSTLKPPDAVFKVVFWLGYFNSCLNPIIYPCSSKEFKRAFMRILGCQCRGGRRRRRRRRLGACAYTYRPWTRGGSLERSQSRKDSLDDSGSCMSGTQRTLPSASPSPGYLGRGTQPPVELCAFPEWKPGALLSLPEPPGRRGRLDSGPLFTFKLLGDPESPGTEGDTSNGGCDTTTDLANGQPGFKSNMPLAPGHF
Experiment: Antagonist activity at alpha1B-adrenoreceptor in Sprague-Dawley rat spleen assessed as relaxation of (-)-noradrenaline-induced contractile response
Type: functional
Conditions: read-out: pA2 (converted)
measurement.label: Kb

Use the examples below as a reference point.
COC(=O)Cc1ccc(OCC(O)CN2CCN(c3ccccc3C)CC2)cc1 (stereo not given)
324 nM
COC(=O)Cc1ccc(OCC(O)CN2CCN(c3cc(C)ccc3C)CC2)cc1 (stereo not given)
759 nM
COC(=O)Cc1ccc(OCC(O)CN2CCN(c3ccccc3OC)CC2)cc1 (stereo not given)
603 nM
COC(=O)Cc1ccc(OC[C@@H](O)CN2CCN(c3cc(C)ccc3C)CC2)cc1
269 nM

stdin: I'm curious: which Kb was measured for "COC(=O)Cc1ccc(OC[C@H](O)CN2CCN(c3cc(C)ccc3C)CC2)cc1" tested on Alpha-1B adrenergic receptor (Rattus norvegicus)?
stdout: 447 nM

---

target: Alpha-1A adrenergic receptor (Rattus norvegicus); test: Antagonist activity at alpha1A-adrenoreceptor in Sprague-Dawley rat vas deferens assessed as relaxation of (-)-noradrenaline-induced contractile response; type: functional; conditions: read-out: pA2 (converted)
Sequence (P43140 whole entry): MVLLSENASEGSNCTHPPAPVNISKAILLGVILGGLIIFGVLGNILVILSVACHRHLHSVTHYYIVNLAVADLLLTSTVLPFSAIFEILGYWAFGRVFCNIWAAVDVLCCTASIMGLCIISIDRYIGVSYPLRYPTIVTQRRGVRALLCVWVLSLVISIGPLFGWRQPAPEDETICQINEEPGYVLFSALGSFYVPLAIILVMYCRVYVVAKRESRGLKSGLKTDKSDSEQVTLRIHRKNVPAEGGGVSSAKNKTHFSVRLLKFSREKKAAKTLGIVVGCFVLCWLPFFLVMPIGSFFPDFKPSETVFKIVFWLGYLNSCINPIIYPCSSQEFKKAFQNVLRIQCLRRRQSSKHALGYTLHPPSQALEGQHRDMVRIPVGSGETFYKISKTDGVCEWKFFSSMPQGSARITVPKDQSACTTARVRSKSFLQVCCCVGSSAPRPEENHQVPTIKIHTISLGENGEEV
measurement.label: Kb (nM)
Quick note: give the figure in nM, leave out the unit.

These recorded examples may help you get a feel for the data.
COC(=O)Cc1ccc(OCC(O)CN2CCN(c3cc(C)ccc3C)CC2)cc1 (stereo not given)
38.9
COC(=O)Cc1ccc(OCC(O)CN2CCN(c3ccccc3C)CC2)cc1 (stereo not given)
490
COC(=O)Cc1ccc(OC[C@H](O)CN2CCN(c3cc(C)ccc3C)CC2)cc1
63.1
COC(=O)Cc1ccc(OC[C@@H](O)CN2CCN(c3cc(C)ccc3C)CC2)cc1
30.2

stdin: Query: Kb; subject: COC(=O)Cc1ccc(OCC(O)CN2CCN(c3ccccc3OC)CC2)cc1 (stereo not given)
stdout: 148

---

Recorded Activity for the following molecules
tested on: Thoracic aorta; test: Vasodilatory activity in New Zealand White rabbit thoracic aorta assessed as relaxation of (-)-noradrenaline-induced contractile response at 0.1 uM relative to untreated control; type: functional, Oryctolagus cuniculus; set-up: scale not given: the % may be the effect or the level left
Reply with just the number (in %).

Illustrative cases are given below, each with its answer.
COC(=O)Cc1ccc(OCC(O)CN2CCN(c3ccc(C)c(Cl)c3)CC2)cc1 (configuration not stated)
19.5
COc1ccccc1N1CCN(CC(O)COc2cccc3ccccc23)CC1 (configuration not stated)
25.1
COC(=O)Cc1ccc(OCC(O)CN2CCN(c3ccc(OC)cc3)CC2)cc1 (configuration not stated)
6.3

stdin: Activity of COC(=O)Cc1ccc(OCC(O)CN2CCN(c3ccc(C)cc3)CC2)cc1 (configuration not stated) on Thoracic aorta?
stdout: 15.3

stdin: Record COC(=O)Cc1ccc(OCC(O)CN2CCN(c3cc(C)cc(C)c3)CC2)cc1 (configuration not stated) : what is its Activity with Thoracic aorta?
stdout: 5.8

stdin: # get_value(readout= Activity, system= Thoracic aorta) for COC(=O)Cc1ccc(OCC(O)CN2CCN(c3cc(Cl)c(OC)cc3OC)CC2)cc1 (configuration not stated)
stdout: 8.2

stdin: API: value(readout= Activity, system= Thoracic aorta, query= COC(=O)Cc1ccc(OCC(O)CN2CCN(c3ccccc3OC)CC2)cc1 (configuration not stated) )
stdout: 27.6
